assay: yeast display, Sf9 membrane polyspecificity reagent, FACS + sequencing; frameworks hold sequencing errors
EXPERIMENTAL_ENDPOINT: polyreactivity (PSR sort gate)

// worked examples, polyreactivity (PSR sort gate) included
SEQUENCE_TEXT	polyreactivity (PSR sort gate)
QVQLVESGGGLVQAGGSLRLSCAASGIIYYGYAMGWYRQAPGKERELVAAISRSGGSTYYADSVKGRFTISRDNAKNTVYLQMNSLKPEDTAVYYCAASGVTYDYWGQGTQVTVSS	high polyreactivity
QVQLVESGGGLVQAGGSLRLSCAASGSTFLLNTMGWYRQAPGKERELVAAISSITGDTYYADSVKGRFTISRDNAKNTVYLQMNSLNPEDTAVYYCAAYLSETRPYLYDYWGQGTQVTVSS	low polyreactivity
QVQLVESGGGLVQAGGSLRLSCAASGFTFAYYVMGWYIQAPGKETELVAAISISGARTYYAESVKGRFTISRDNSKNTVYLQMNRLKPEDTAVYYCAADRRTDGHDYWGLGTQVTVSS	high polyreactivity
QVQLVESRGGLVQAGGSLRLTCAASGYTFVYNGMGWYRQAPGKERELVAAFRRRTGTTYYADSVKGRFTISRDNAKNTVYLQMNSLKPEDSSVYYSAATGFWCYDWGQGSQVTVSS	high polyreactivity
QVQLVESGGGLVQAGGSLRLSCAASGITFTFNAMGWYRQAPGKERELVAAITWSGGSTFYADSVKGRFTISRDNAKNTVDLQMNSLKPEDTAVYYCARDTELYVRWLDYWGQGTQVTVSS	low polyreactivity

Any idea what polyreactivity (PSR sort gate) was measured for `QVQLVESGGGLVQAGGSLRLSCAASGSIFGQYTMGWYRQAPGKERELVAVISTRGGSTYYADSVKGRFTISRDNAKNTVYLQMNSLKPEDTAVYYCAASAFRGREMDYWGQGTQVTVSS` ?
low polyreactivity

Any idea what polyreactivity (PSR sort gate) was measured for `QVQLVESGGGLVQAGGSLRLSCAASGRISNFYSMGWYIQAPGKERELVAANRSGGSTNYADSVKGRFTISRDNAKYTVYLQMNSLKPEDTAVYYCAAVTGASPTRMDYWGQGTQVTVSS` ?
high polyreactivity

Any idea what polyreactivity (PSR sort gate) was measured for `QVQLVESGGGLVQAGGSLRLSCAASGRIFRDNAMGGYRQAPGKERELVASISSRTGRTYYADSVKGRFTISRDNAKNTVYLQMNSLKPEDTAVYYCAAAFIYRGPGSLKFDYWGQGTQVTVSS` ?
low polyreactivity

Any idea what polyreactivity (PSR sort gate) was measured for `QVQLVESGGGLVQAGGSLRLSCAASGSIFKGYAMGWYRQAPGKERELVAAISGGGGSTYYADSVKGRFTISRDNAKNTVYLQMNSLKPEDTAVYYCNRDDSWSTTGAYDYWGQGTQVTVSS` ?
low polyreactivity

Any idea what polyreactivity (PSR sort gate) was measured for `QVQLVESGGGLVQAGGSLRLSCAASGITFYGYAMGWYRQAPGKERELVASISYGGGSTYYADSVKGRFTISRDNAKNTVYFQLNSLKPEDTAVYYCAAQAATYYSGYYYWGQGTQVTVSS` ?
high polyreactivity

Any idea what polyreactivity (PSR sort gate) was measured for `QVQLVESGGVLVQAGGSLRLSCAASGFINLRYAMGWYRQAPGKERELVAAITSGGNTYYADSVKGRFTISRDNAKNTVSLQRNSLKQEDTAVYYCAAERFVITYPISRYYYWGQGTQVTVSS` ?
low polyreactivity

Any idea what polyreactivity (PSR sort gate) was measured for `QVQLVESGGGLVQAGGTLRLSCAASGSIFYGNAMGWYREAPGKERQLVAAIDGTGASTYYADSVKGRFTISRDNAKNPVYLQMNSLKPEDTAVYYCNKALTSKDYPVRTVERDYWGQGTQVTVSS` ?
low polyreactivity

All figures here come from the nanobody polyreactivity screen of Harvey et al. (2022).
